Target: Epidermal growth factor receptor (Homo sapiens, UniProt P00533)
Sequence (P00533 whole entry): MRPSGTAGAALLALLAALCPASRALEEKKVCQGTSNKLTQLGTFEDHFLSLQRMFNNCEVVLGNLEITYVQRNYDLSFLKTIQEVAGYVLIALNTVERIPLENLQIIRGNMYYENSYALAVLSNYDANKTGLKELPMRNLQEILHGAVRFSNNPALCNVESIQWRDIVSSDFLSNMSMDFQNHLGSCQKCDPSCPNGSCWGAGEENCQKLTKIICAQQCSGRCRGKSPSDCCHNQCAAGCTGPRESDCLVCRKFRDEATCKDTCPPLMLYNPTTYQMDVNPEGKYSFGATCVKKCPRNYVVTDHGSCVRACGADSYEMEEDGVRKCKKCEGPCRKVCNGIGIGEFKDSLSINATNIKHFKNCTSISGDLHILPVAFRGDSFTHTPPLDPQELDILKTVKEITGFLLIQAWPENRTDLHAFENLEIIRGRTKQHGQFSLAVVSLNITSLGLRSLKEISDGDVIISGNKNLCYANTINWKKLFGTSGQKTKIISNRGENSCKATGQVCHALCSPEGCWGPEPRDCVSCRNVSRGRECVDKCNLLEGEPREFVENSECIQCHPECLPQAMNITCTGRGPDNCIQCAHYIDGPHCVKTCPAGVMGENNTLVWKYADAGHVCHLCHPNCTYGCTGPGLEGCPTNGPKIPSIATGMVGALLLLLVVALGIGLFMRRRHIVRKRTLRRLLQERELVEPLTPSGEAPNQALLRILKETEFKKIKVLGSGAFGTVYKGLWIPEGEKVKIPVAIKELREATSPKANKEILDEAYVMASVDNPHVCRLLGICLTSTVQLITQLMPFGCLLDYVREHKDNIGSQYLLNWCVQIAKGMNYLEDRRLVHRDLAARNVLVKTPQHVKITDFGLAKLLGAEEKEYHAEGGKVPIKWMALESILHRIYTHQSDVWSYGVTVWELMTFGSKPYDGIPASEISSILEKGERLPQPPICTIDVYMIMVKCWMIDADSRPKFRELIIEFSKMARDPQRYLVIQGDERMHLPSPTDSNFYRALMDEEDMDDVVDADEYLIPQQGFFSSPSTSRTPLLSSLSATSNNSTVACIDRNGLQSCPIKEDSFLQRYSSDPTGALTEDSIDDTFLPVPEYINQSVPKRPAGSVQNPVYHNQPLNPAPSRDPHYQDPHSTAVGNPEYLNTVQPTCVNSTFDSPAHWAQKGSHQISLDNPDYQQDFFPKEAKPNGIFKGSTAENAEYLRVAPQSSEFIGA
pIC50: −log10 of the molar value.
measured.attribute: pIC50

INSERT INTO measurements (compound_smiles, measured_attribute, experimental_result) VALUES
  ('COc1ccc(-c2c3c4cc(OC)c(OC)cc4[nH]c(=O)c3n3ccc4cc(O)c(OC)cc4c23)cc1O', 'pIC50', 6.59),
  ('COc1ccc(-c2c3c4cc(O)c(OCCCN(C)C)cc4[nH]c(=O)c3n3ccc4cc(O)c(OC)cc4c23)cc1O', 'pIC50', 7.61),
  ('COc1ccc(-c2c3c4cc(OCCCN(C)C)c(O)cc4[nH]c(=O)c3n3ccc4cc(O)c(OC)cc4c23)cc1O', 'pIC50', 7.63),
  ('COc1ccc(-c2c3c4cc(OC)c(OCCCN(C)C)cc4[nH]c(=O)c3n3ccc4cc(O)c(OC)cc4c23)cc1O', 'pIC50', 7.81);
